system: aCBF5; assay: EMSA; details: EMSA: 150 mM KCl, 1.5 mM MgCl2, 0.2 mM EDTA, 20 mM HEPES pH 7.9, 65 C 10 min, 50 fmol sRNA, 200 nM proteins (Kd: 50-400 nM aCBF5); fluorescence: 300 mM NaCl …
RESULT TYPE: pKd
Would you please state pKd, meaning minus log10 of the concentration in mol/L, as a bare number?

Study these solved cases before continuing.
# SEQUENCE ENTRY, pKd
data = [
    ("GGGUAAUGGGGCCCGGCUCUCACACCUCCGGGAUCAGUGACCGGAGGGCGGUCGCCGGGCCUACACCU [Pab91P121 chimera]", 6.70),
    ("GGGGAUCCCCUCCCCUCCCGCCCUCUCCGGGGAAUCGUGAACCGGGGGUUCCGGGGGAGGGGACAGU [Pab21P191 chimera]", 6.70),
]

Could you now look at the following sequence, please?
Measured pKd, GGGGAUGGGCCCGGCUCCCGCCCUCUCCGGGGAAUCGUGAACCGGGGGUUCCGGCCGGGCCUACAGU [Pab21 H/ACA sRNA] : 6.90
